Listed here: items and their measured inhibition.
experimental.details: protection from phage-mediated lysis, alamar blue read-out – E. coli UTI89, K1F phage, bacterial capsule biogenesis inhibitors (AID 488966);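 note: capsule biogenesis inhibitors block K1F phage lysis so surviving cells raise fluorescence; higher fluorescence means more inhibition of phage lysis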
cond: 2 h; at 100 µM, active compounds read high unless noted
Among all 340,000 compounds or so, about 55 (0.02%) were called active. Only a sample is shown. Measured potencies and affinities stand elsewhere.

Worked set:
* NC(N)=N/N=C/c1ccc(OCc2ccc(Cl)cc2)cc1 | -12.3% (inactive)
* CCOc1ccc(S(=O)(=O)NCc2cccnc2)cc1C | 0.14% (inactive)
* COc1cc(/C=N/O)ccc1OCc1ccccc1Cl | 2.6% (inactive)
* Cc1c(NC(=S)NC(=O)c2cccc([N+](=O)[O-])c2)c(=O)n(-c2ccccc2)n1C | -0.17% (inactive)
* COc1ccccc1OCC(=O)NNC(=O)c1cccs1 | 5.22% (inactive)

State, in one line, measured inhibition of CC(=O)NC1=NN(C(C)=O)C(C)(c2cccnc2)S1 (stereo unspecified)
0.35% (inactive)

State, in one line, measured inhibition of Cc1c(N(C(=O)Nc2ccccc2)C2=NCC(C)S2)c(=O)n(-c2ccccc2)n1C (stereo unspecified)
0.11% (inactive)

State, in one line, measured inhibition of C/C(=N\NC(=S)NCCc1ccccc1)c1ccc(C#N)cc1
0.17% (inactive)

State, in one line, measured inhibition of CC(=O)Nc1ccc(Nc2ccc(S(=O)(=O)C(F)(F)F)cc2[N+](=O)[O-])cc1
-2.27% (inactive)

State, in one line, measured inhibition of COc1cccc(C(=O)Nc2ncc3c(n2)CC(C)CC3=O)c1 (stereo unspecified)
0.02% (inactive)

State, in one line, measured inhibition of COC(=O)Nc1nc(Sc2ncc(C(F)(F)F)cc2Cl)n[nH]1
1.11% (inactive)
